Test system: HS 578T breast
Assay: NCI tumour cell line growth inhibition, 48 h
Recorded Endpoint: TGI

>>> result("O=C1CC(n2cccc2)c2c(Br)sc(Br)c21 (configuration not stated)")
"> 72.3 µM"
>>> result("c1ccc(-c2nnn(CCN3CCCCC3)n2)cc1")
"> 100 µM"
>>> result("CC1OC(OC2CCC3(C=O)C4CCC5(C)C(C6=CC(=O)OC6)CCC5(O)C4CCC3(O)C2)C(O)C(O)C1O (configuration not stated)")
"> 100 µM"
>>> result("C/C=C1\\C(=O)OC2CCN3CCC(COC(=O)C(C)(O)C(C)C1O)C23 (configuration not stated)")
"> 100 µM"
>>> result("COc1cc([N+](=O)[O-])c2ncccc2c1[N+](=O)[O-]")
"29.4 µM"
>>> result("CC1CC2(C)CC(=O)C1C1C(=O)N(CCN3CCCCC3)C(=O)C12 (configuration not stated)")
"> 100 µM"
>>> result("CC(C)(C)OC(=O)n1cc(C2CN(O)C(=O)C23CCC(=O)N3Cc2ccccc2)c2ccccc21 (configuration not stated)")
"> 100 µM"
>>> result("Nc1ncnc2c1ncn2Cc1cccc(CCl)c1")
"> 100 µM"
>>> result("COc1cccc(C2NC(=S)NC(C)=C2C(=O)Nc2ccc(Cl)c(Cl)c2)c1 (configuration not stated)")
"28.8 µM"
>>> result("O=[N+]([O-])c1cccnc1-n1cnc2ccccc21")
"> 100 µM"
>>> result("N#Cc1nc(C#N)n(C(=O)c2ccccc2)c1NC(=O)c1ccccc1")
"> 100 µM"
>>> result("CCOC(=O)C(=O)C(=O)NN(C)C1=NCCN1")
"> 100 µM"
>>> result("N=C1C=C(N)C(=O)c2[nH]c(=O)ccc21")
"> 100 µM"
>>> result("Cc1[nH]c(=O)[nH]c(=S)c1C(=O)Nc1cccc2cc3ccccc3cc12")
"> 100 µM"
>>> result("COC(=O)c1c(C)nc(C)c(NO)c1-c1ccccc1C(F)(F)F")
"> 100 µM"
>>> result("Cc1ccc(S(=O)(=O)N(CC(O)COc2ccccc2)c2ccc(F)cc2F)cc1 (configuration not stated)")
"39.9 µM"
>>> result("Nc1[nH]c(=O)ncc1CO")
"> 100 µM"
>>> result("COC(=O)CCCC(=O)NC1=C(NCc2ccccc2)C(=O)c2ccccc2C1=O")
"> 100 µM"
>>> result("CCOC(=O)C1CCCCN1CCc1c[nH]c2ccccc12 (configuration not stated)")
"> 100 µM"
>>> result("CN(C)c1ccc(/C=C2\\N=C(c3ccccc3)N(c3ccc4c(c3)Sc3cc(N5C(=O)/C(=C/c6ccc(N(C)C)cc6)N=C5c5ccccc5)ccc3N4)C2=O)cc1")
"72.7 µM"
>>> result("Oc1[nH]c2cc(Cl)ccc2c1/C=c1/ccc2c(c1)N=C(c1cc(F)cc(F)c1)N=2")
"10.2 µM"
>>> result("CC1(C)OC2C(COS(N)(=O)=O)SC(n3cnc4cncnc43)C2O1 (configuration not stated)")
"> 100 µM"
>>> result("COc1c(C)c(C/C=C(\\C)CC/C=C(\\C)CCC=C(C)C)c(OC)c(OC)c1OC")
"> 100 µM"
>>> result("CC(=O)Oc1ccc2c(c1)CC[C@@H]1C2CC[C@]2(C)C(=O)NC(=O)CC12 (some centres not stated)")
"> 100 µM"
>>> result("O=C(c1ccc(Cl)cc1)C1OC12C(=O)Nc1ccccc12 (configuration not stated)")
"44.6 µM"
>>> result("COc1ccc(CCc2cc(OC)c(OC)c(OC)c2)cc1")
"> 100 µM"
>>> result("CC(C)OC1OC(CO)C(O)CC1n1cc(F)c(=O)[nH]c1=O (configuration not stated)")
"> 100 µM"
>>> result("COC1(OC)c2no[n+]([O-])c2C(OC)(OC)c2c1no[n+]2[O-]")
"97.7 µM"
>>> result("C/C(Nc1ccc(Cl)cc1Cl)=C1/CCOC1=O")
"73.8 µM"
>>> result("NC(=O)Cc1nc2c(=O)[nH]cnc2n1C1OC(CO)C(O)C1O (configuration not stated)")
"> 100 µM"
>>> result("CO[C@H]1C[C@H](O[C@H]2CC[C@]3(C=O)[C@H]4CC[C@]5(C)[C@@H](C6=CC(=O)OC6)CC[C@]5(O)[C@@H]4CC[C@]3(O)C2)O[C@H](C)[C@H]1O")
"> 31.6 µM"
>>> result("CC(=O)N(Cc1ccccc1)c1ccccc1I(=O)=O")
"> 100 µM"

# credit: PubChem BioAssay (NCI)
